details: buffer; pH 7.4; 200.0 µM
# reported solubility kinetic; entries follow
readoutName: solubility kinetic

| compound | readoutName | result |
| --- | --- | --- |
| COCCNC(=O)C(=O)Nc1cc2c3c(c1)C(C)C(=O)N3CCC2 (stereo not drawn) | solubility kinetic | 48.7 µg/mL |
| CC(=O)c1csc(COc2ccccc2)n1 | solubility kinetic | 27.3 µg/mL |
| COCCNc1oc(Cc2cccc3ccccc23)nc1C#N | solubility kinetic | 43.3 µg/mL |
| Cl.NCCCCCc1nnc(SCC(N)=O)o1 | solubility kinetic | > 42.1 µg/mL |
| CN(C)C(=S)SCC(=O)NC(=O)NC(C)(C)C | solubility kinetic | 39.4 µg/mL |
| Cc1ccccc1NC(=O)CCN1CCN(C)CC1 | solubility kinetic | > 39.2 µg/mL |
| CN1CCC(N(C)C(=O)NC2CCCCC2)CC1 | solubility kinetic | > 38 µg/mL |
| O=C(Nc1ccccc1Cl)c1sccc1-c1ccccc1 | solubility kinetic | < 0.7 µg/mL |
| O=C(NC1=NCCS1)C1CC(=O)N(c2ccc(Cl)cc2)C1 (stereo not drawn) | solubility kinetic | > 48.6 µg/mL |
| Cc1cccc(C)c1NC(=O)Cc1cccs1 | solubility kinetic | > 36.8 µg/mL |
| O=C(Nc1ncccc1O)c1ccc(Oc2ccccc2)cc1 | solubility kinetic | > 45.9 µg/mL |
| COc1ccc(CNc2ncnc3c2[nH]c2cc(OC)c(OC)cc23)cc1 | solubility kinetic | 1.2 µg/mL |
| Cc1[nH]nc(SCC(=O)N2CCCCCC2)c1[N+](=O)[O-] | solubility kinetic | > 44.8 µg/mL |

----------
# Lookup of reported log10(solubility kinetic) keyed by entry
conditions: buffer; pH 7.4; 200.0 µM
readoutName: log10(solubility kinetic) (log10 of the value in mg/mL)

| molecule | log10(solubility kinetic) |
| --- | --- |
| C=CCn1cnc2c(sc3nc(C)cc(C)c32)c1=O | -2.16 |
| O=C(COC(=O)c1cccc(S(=O)(=O)N2CCOCC2)c1)NCc1ccc2c(c1)OCO2 | -1.18 |
| COC(=O)c1ccccc1SCc1csc(C)n1 | -1.41 |
| CC(=O)c1ccc(NC(=O)C(Cc2ccccc2)n2cccc2)cc1 (centres undefined) | -2.80 |
| O=C1CSC(=Nc2ccc(Cl)cc2)N1 | -1.47 |
| O=C(Nc1ncccc1O)c1c(O)c2ccccc2[nH]c1=O | -1.95 |
| O=C1NC2(CCCCCC2)N=C1c1ccc(Br)cc1 | -3.05 |
| Cc1cc(=O)oc2cc(Oc3ncccc3[N+](=O)[O-])ccc12 | -2.70 |
| c1ccc(CNc2ncnc3sccc23)cc1 | -1.50 |
| COc1ccccc1OCCNC(=O)C(c1ccccc1)c1ccccc1 | -2.66 |
| Cn1c(=O)[nH]c(=O)c2c1nc1n2CCCN1Cc1ccccc1 | -2.09 |
| COc1cccc(NC(=O)N2CCCC(C(=O)NC3CCCCC3C)C2)c1 (centres undefined) | -2.19 |
| COC(=O)C1=C(C)NC(C)=C(C(=O)OC)C1c1ccc(C)o1 | -1.89 |
| O=C(Cn1cnc2ccccc21)Nc1cccc([N+](=O)[O-])c1 | -1.37 |
| CCOc1ccc(C(CC(=O)O)NC(=O)C(CC)c2ccccc2)cc1 (centres undefined) | -1.32 |
| CCOc1ccc(Nc2nc(N)c([N+](=O)[O-])c(N3CCN(C)CC3)n2)cc1 | -1.28 |
| Cn1c(N)c(Sc2ccccc2[N+](=O)[O-])c(=O)n(C)c1=O | -1.38 |
| Cc1ccccc1CC(=O)NCC1CCCCC1 | -1.89 |
| CCOc1ccccc1CN1C(=O)C2(OCCO2)c2ccccc21 | -2.28 |
| O=C(NC1CCCC1)C1CC(=O)N(c2ccc(F)cc2)C1 (centres undefined) | -1.42 |
| N[C@@H](Cc1ccccc1)C(=O)N1C[C@H]2C[C@@H](C1)c1cccc(=O)n1C2 | -1.31 |
| CCOC(=O)CN/C=C(\C#N)c1ccc(F)cc1 | -1.44 |
| Cc1nc(N2CCN(C)CC2)c2c3c(sc2n1)CCCC3 | -1.38 |
| O=C(CN1C(=O)NC(c2ccccc2)(c2ccccc2)C1=O)NCc1ccc(F)cc1 | -2.19 |

----------
details: buffer; pH 7.4; 200.0 µM
Given measured solubility kinetic, output true (1) if it is greater than or equal to 40 µg/mL and false (0) if not.

| molecule | answerLabel |
| --- | --- |
| COc1ccccc1/C=C1\SC(N2CCC(C)CC2)=NC1=O | false (0) |
| COc1ccc(Cl)cc1NC(=O)COC(=O)C1CC(=O)N(Cc2ccccc2)C1 (stereo unspecified) | true (1) |
| CN(C(=O)c1cncc(Br)c1)C1C2CC3CC(C2)CC1C3 (stereo unspecified) | true (1) |
| CCOc1ccc(CCNC(=O)COC(=O)c2ccc[nH]c2=O)cc1OCC | true (1) |
| O=C(NC1CCCN(CCc2ccccc2)C1)c1c(F)cccc1F (stereo unspecified) | true (1) |
| O=c1[nH]c(=O)n(-c2ccc(Br)cc2)c(O)c1C=NCCN1CCCCC1 | true (1) |
| Cc1cc(C)c2c(c1)C1(OCCO1)C(=O)N2 | false (0) |
| Cc1ccc2c(c1)N(CC(=O)N1CCCCC1)C(=O)C(C)O2 (stereo unspecified) | true (1) |
| CCc1cccc(OCC(=O)Nc2c[nH]c(=O)[nH]c2=O)c1 | false (0) |

----------
conditions: buffer; pH 7.4; 200.0 µM
Response key: YES means solubility kinetic >= 20 µg/mL; NO means solubility kinetic < 20 µg/mL.

| compound | answerLabel |
| --- | --- |
| Cc1cccc(C)c1OC(=O)CN1C(=O)c2ccccc2C1=O | NO |
| CN(Cc1ccccc1C#N)S(=O)(=O)c1cccs1 | YES |
| O=c1[nH]cnc2c1c(-c1ccccc1)cn2-c1ccccc1 | NO |
| CCN(CC)CCCN=C(N)N.O=S(=O)(O)O | YES |
| COc1cccc(-n2c(SCc3ccccn3)nc3c(c2=O)SCC3)c1 | YES |
| COc1ccccc1C(=O)N/C(=N/c1nc(C)cc(C)n1)Nc1ccccc1 | NO |
| N#CC1=C(N)Oc2cc(N)ccc2C1c1cccc(Br)c1 (stereo unspecified) | NO |
| O=C(/C=C/c1ccco1)N1CCN(S(=O)(=O)c2cccc([N+](=O)[O-])c2)CC1 | YES |
| COc1ccccc1N1CCN(C(=O)c2cc3cc(C)ccc3[nH]2)CC1 | NO |
| O=C(CN1CCOCC1)Nc1nc(-c2ccc(Cl)cc2)cs1 | YES |
| CC1CCC(NC(=S)NCCN(C)C)CC1 (stereo unspecified) | YES |

----------
details: buffer; pH 7.4; 200.0 µM
readoutName: log10(solubility kinetic) (log10 of the value in µg/mL)

| compound | log10(solubility kinetic) |
| --- | --- |
| Cn1c(=O)c2c(ncn2CC(=O)OCC(=O)Nc2cc(Cl)ccc2C#N)n(C)c1=O | 1.80 |
| CSc1ncccc1C(=O)NCC1CCCCC1 | 1.58 |
| O=C(Cc1ccc([N+](=O)[O-])cc1)NC1CCCCCC1 | 1.18 |
| Cc1ccc(CNC(=O)C(Cc2ccccc2)n2cccc2)cc1 (stereo not drawn) | 0.72 |
| COC(=O)/C(=C\c1ccc(O)cc1)c1nc2ccccc2[nH]1 | 1.60 |
| COc1ccc(N2C(=O)Cc3c2nc(N)c(C#N)c3N)cc1 | 1.11 |
| CC(=O)c1c(O)c2ccccc2n(C)c1=O | 1.44 |
| CCc1ccc(C(C)NC(=O)C2CCCC2)cc1 (stereo not drawn) | 1.27 |
| Cc1ccc(C(=O)Nc2ccc3[nH]c(=O)[nH]c3c2)c(C)c1 | 0.59 |
| O=C(NCCc1ccccn1)c1cc2ccccc2o1 | 1.58 |
| Cc1ccccc1OC(C)C(=O)Nc1ccc2c(c1)OCO2 (stereo not drawn) | 1.59 |
| COc1ccc(CNC(=O)CNC(=O)c2ccc(Br)o2)cc1OC | 1.73 |
| CCn1cc(CCC(=O)NC2CCCC2)c2ccccc21 | 1.61 |
| CCOc1cccnc1Sc1ccccc1 | 1.44 |
| Cc1ccc(NC(=O)CN(C)C(=O)COc2cccc3cccnc23)cc1 | 1.72 |
| Cc1ccc(C(=O)N2CCOCC2)c(F)c1F | 1.53 |
| COC(=O)c1cc(C(=O)NCc2ccc3c(c2)OCO3)cc([N+](=O)[O-])c1 | 0.41 |
| C=CCCC(=O)N1CCCC(C(=O)c2cccc(OC)c2)C1 (stereo not drawn) | 1.61 |
| O=C(NC1CCCc2ccccc21)c1ccccc1Cl (stereo not drawn) | 1.60 |
| CC(C)(C)N1CSC(=S)N(Cc2ccccc2)C1 | 1.21 |
| COn1c(=O)c(-c2cccc(Br)c2)[n+]([O-])c2ccccc21 | 0.69 |
| O=C(c1cccc(S(=O)(=O)N2CCCc3ccccc32)c1)N1CCN(c2ccccc2)CC1 | 0.56 |
| O=C(OCC(=O)N1CCc2ccccc21)[C@@H]1CC(O)CN1S(=O)(=O)c1ccc(Cl)cc1 (stereo partly drawn) | 1.70 |
| S=c1nc(NCCc2ccccc2Cl)c2ccccc2[nH]1 | -0.70 |
| CCOc1ccc(NC(=O)c2ccccc2SC)cc1 | 0.38 |
| COC(=O)COc1ccc(S(=O)(=O)N2CCCCCC2)cc1 | 1.63 |
| Cc1nc(N)sc1-c1csc(Nc2cccc(O)c2)n1 | 1.53 |
